- Tested target: Signal transducer and activator of transcription 1-alpha/beta (Homo sapiens, UniProt P42224)
- Sequence (P42224 whole entry): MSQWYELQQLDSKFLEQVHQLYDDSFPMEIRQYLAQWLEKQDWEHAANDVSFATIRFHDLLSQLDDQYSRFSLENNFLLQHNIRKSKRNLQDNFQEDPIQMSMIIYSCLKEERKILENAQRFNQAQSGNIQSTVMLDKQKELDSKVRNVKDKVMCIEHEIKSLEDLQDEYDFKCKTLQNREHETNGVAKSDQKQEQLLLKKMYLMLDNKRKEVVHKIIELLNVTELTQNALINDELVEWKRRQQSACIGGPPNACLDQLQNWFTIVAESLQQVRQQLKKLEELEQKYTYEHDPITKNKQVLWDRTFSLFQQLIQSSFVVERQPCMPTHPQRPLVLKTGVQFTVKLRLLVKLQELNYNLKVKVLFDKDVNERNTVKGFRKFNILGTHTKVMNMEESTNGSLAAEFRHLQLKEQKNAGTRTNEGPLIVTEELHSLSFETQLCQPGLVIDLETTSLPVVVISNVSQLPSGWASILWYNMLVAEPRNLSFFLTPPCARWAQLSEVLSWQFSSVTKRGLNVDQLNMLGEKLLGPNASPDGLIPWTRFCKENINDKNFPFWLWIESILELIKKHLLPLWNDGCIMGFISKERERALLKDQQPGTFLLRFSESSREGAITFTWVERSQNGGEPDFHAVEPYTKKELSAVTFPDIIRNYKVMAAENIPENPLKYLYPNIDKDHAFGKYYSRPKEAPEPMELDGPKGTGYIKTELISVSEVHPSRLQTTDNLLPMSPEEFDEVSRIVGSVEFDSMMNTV
- Procedure text: Inhibition of IFN-gamma-induced STAT1 transcriptional activity in human HepG2 cells by luciferase reporter gene assay
Listing of entries alongside the reported IC50.
The reply should contain only the number, in nM.

CCCC(C)Oc1ccc(C(=O)Nc2ccc3nc(SCC(=O)N[C@@H](C)c4ccc(OC)cc4)sc3c2)c(OC)c1C (some centres not stated) ... 320

Problem: So what does the record say about IC50 for CCCC(C)Oc1ccc(C(=O)Nc2ccc3nc(SCC(=O)N[C@@H](C)c4ccccc4)sc3c2)c(OC)c1C (some centres not stated) ?
Result: 350
